test system: HEK-293T; experiment: Multiplex assay against HEK293T; assay type: toxicity, cell-based; conditions: human, 24 h, 1 µM, compound concentration 1 uM, replicate 1

{"COMPOUND": "CN(c1cc(C(F)(F)F)nc(OCCC(=O)O)n1)c1cccc2c1CCC2", "Population Apoptotic (%)": "34%"}
{"COMPOUND": "CCCc1cc(C)[nH]c(=O)c1CNC(=O)c1cc(-c2ccc(N3CCN(C(C)C)CC3)nc2)cc2c1cnn2C(C)C", "Population Apoptotic (%)": "79%"}
{"COMPOUND": "NC(=O)c1ccc2nc(-c3ccc(C4(N)CCC4)cc3)c(-c3ccccc3)n2n1", "Population Apoptotic (%)": "32%"}
{"COMPOUND": "CCOC(=O)CCNc1cc(N2CCc3ccccc3CC2)nc(-c2ccccn2)n1", "Population Apoptotic (%)": "20%"}
{"COMPOUND": "Cl.Cn1c2c(c3ccc(Cl)c(Cl)c31)C(C#N)C1(CCNCC1)NC2=O (stereo unspecified)", "Population Apoptotic (%)": "16%"}
{"COMPOUND": "CC(C)c1cc(Nc2nc(N3CCC[C@H](N)C3)ncc2C(N)=O)cc(C(C)C)n1", "Population Apoptotic (%)": "65%"}
{"COMPOUND": "CC[C@@H]1C(=O)N(C)c2cnc(Nc3ccc(C(=O)NC4CCN(C)CC4)cc3OC)nc2N1C1CCCC1", "Population Apoptotic (%)": "14%"}
{"COMPOUND": "CC(/C=C1\\SC(=S)N(CCCC(=O)Nc2ccc(C(=O)O)c(O)c2)C1=O)=C\\c1ccccc1", "Population Apoptotic (%)": "41%"}
{"COMPOUND": "Cc1ccc(S(=O)(=O)NC2c3ccccc3Oc3ccccc32)cc1", "Population Apoptotic (%)": "41%"}
{"COMPOUND": "Cc1c(Nc2ccc(S(=O)(=O)N3CCN(C)CC3)cc2F)nc2ccc(-c3cnn(C4CC4)c3)cn2c1=O", "Population Apoptotic (%)": "15%"}
{"COMPOUND": "Cc1c(P(=S)(c2ccccc2)c2ccccc2)n2ccccc2[n+]1C/C=C/c1ccccc1.[Br-]", "Population Apoptotic (%)": "62%"}
